- Tested on: NCI-H460 lung
- procedure details: NCI-60 one-dose screen, 48 h (100 = growth as untreated, 0 = no growth, -100 = all killed)
- condition info: 10 µM unless noted
This is part of a sample that, as a whole, favours compounds with a hit. Of some 83,000 tested, about 20% had one in any assay. Activity calls are given as the source filed them. How the source made its calls: active means growth percent below 10; inactive means the rest.
For each entry below, report its growth value.

CCC(C)NCc1ccccc1 (centres undefined)
102% (inactive)

Please supply growth for each of the following items, keeping them in order.
1. N#Cc1cnn2c(-c3ccc(Cl)cc3)nc(NCCc3ccccc3)nc12
2. CCO/C=N/C1=C(C#N)C(c2ccc(OC)cc2)c2c(c3ccccc3n(C)c2=O)O1 (centres undefined)
3. COc1cc2c(cc1OC)-c1ccc3cc4c(cc3c1N(CCCN(C)C)C2)OCO4
4. COc1ccc(/C(C)=C(\c2ccc(Cl)cc2)c2ccc(OCCN3CCCCCC3)cc2)cc1F

Result block:
1. 99% (inactive)
2. 105% (inactive)
3. 14.6% (inactive)
4. 8.63% (active)

Please supply growth for each of the following items, keeping them in order.
1. COc1ccc(-c2nc3sccn3c2/C=C/C(=O)c2c[nH]c3ccccc23)cc1
2. CC(C)(C)CC(C)(C)Nc1c(-c2ccc(-c3ccccc3)cc2)nc2cnccn12

Result block:
["70.2% (inactive)", "80% (inactive)"]

Please supply growth for each of the following items, keeping them in order.
1. Cc1c2c(cn1Cc1ccccc1)CCc1cn(C)nc1-2
2. COc1cccc(/C=C2\COc3ccc(O)cc3C2=O)c1OC

Result block:
["93.3% (inactive)", "67.8% (inactive)"]

Please supply growth for each of the following items, keeping them in order.
1. Nc1c(-c2nc3ccc(Br)cc3c(=O)[nH]2)nnn1-c1ccccc1
2. NC(=O)CC1(O)C=C(Br)C(=O)C(Br)=C1
3. CS(=O)(=O)c1ccc(N/N=C/c2c(-c3ccc(S(C)(=O)=O)cc3)[nH]c3ccc(F)cc23)cc1

Result block:
1. 43.5% (inactive)
2. 104% (inactive)
3. 12.8% (inactive)
